A short record of log10 of IC50 observed with FKBP12 (Homo sapiens (Human), UniProt P62942) follows.
Sequence (P62942 whole entry): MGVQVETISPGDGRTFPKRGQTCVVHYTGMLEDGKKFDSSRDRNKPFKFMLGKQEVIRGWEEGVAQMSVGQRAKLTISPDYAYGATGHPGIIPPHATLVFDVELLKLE
Remember, log10 of IC50, in nM.

Example results:
CC[C@H](Cc1ccccc1)[C@@H]1/C=C/C/C=C/C[C@@H](C)[C@H](O)[C@@H](C)[C@@H]2CC[C@@H](C)C(=O)C(O)(O2)C(=O)N2CCCC[C@H]2C(=O)O1	0.18
CC[C@H](Cc1cccc(O)c1)[C@@H]1/C=C/C/C=C/C[C@@H](C)[C@H](O)[C@@H](C)[C@@H]2CC[C@@H](C)C(=O)[C@@](O)(O2)C(=O)N2CCCC[C@H]2C(=O)O1	-0.02
CC[C@H](Cc1ccccc1)[C@@H]1/C=C/C/C=C/C(=O)[C@@H](C)[C@H](O)[C@@H](C)[C@@H]2CC[C@@H](C)[C@@](O)(O2)C(=O)C(=O)N2CCCC[C@H]2C(=O)O1	-0.47
CC[C@H](Cc1ccccc1)[C@@H]1/C=C/C/C=C/C[C@@H](C)[C@H](O)[C@@H](C)[C@@H]2CC[C@@H](C)C(=O)C(O)(O2)C(=O)N2CCC[C@H]2C(=O)O1	0.68

Would you be so kind as to report log10 of IC50 for each listed record?
1. CC[C@H](Cc1ccccc1)[C@@H]1/C=C/C=C/CC(=O)[C@@H](C)[C@H](O)[C@@H](C)[C@@H]2CC[C@@H](C)C(=O)C(O)(O2)C(=O)N2CCCC[C@H]2C(=O)O1
2. CC[C@H](Cc1ccccc1)[C@@H]1CCCCCC(=O)[C@@H](C)[C@H](O)[C@@H](C)[C@@H]2CC[C@@H](C)C(O)(O2)C(=O)C(=O)N2CCCC[C@H]2C(=O)O1
3. CC[C@H](Cc1cccc(O)c1)[C@@H]1/C=C/C/C=C/C[C@@H](C)[C@H](O)[C@@H](C)[C@@H]2CC[C@@H](C)[C@@](O)(O2)C(=O)C(=O)N2CCCC[C@H]2C(=O)O1
4. CCC(Cc1ccccc1)C1/C=C/C/C=C/CC(C)C(O)C(C)C2CCC(C)C(O)(CC(=O)N3CCCCC3C(=O)O1)O2 (centres unmarked)

1. 1.27
2. -0.68
3. 0.04
4. 2.55

---

# study-target: FKBP12 (Homo sapiens (Human), UniProt P62942)
# protocol-description: SPR kinetics of Compound 2 and Compound 6 binding to immobilized FKBP12 (Example 8)
# test-settings: compound to immobilized FKBP12, 25° C.
endpoint-name: Kd (nM)
Answers are plain numbers, in nM.

Please provide the recorded Kd for CC[C@H](Cc1ccccc1)[C@@H]1/C=C/C/C=C/C[C@@H](C)[C@H](O)[C@@H](C)[C@@H]2CC[C@@H](C)C(=O)C(O)(O2)C(=O)N2CCCC[C@H]2C(=O)O1 [Compound 2] , tested on FKBP12 (Homo sapiens (Human), UniProt P62942).
13.2

---

Can you tell me pKd for the items I'm about to list?
# study-target: CEP25011.4 (residues 2134-2231) (Homo sapiens (Human), UniProt P62942+Q9BV73)
# Sequence (Q9BV73 2134-2231): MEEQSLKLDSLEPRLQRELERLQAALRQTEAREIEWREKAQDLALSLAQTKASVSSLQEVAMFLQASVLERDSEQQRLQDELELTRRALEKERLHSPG
# Sequence (P62942 whole entry, the tested form may be a part): as the sequence (P62942 whole entry) above
# protocol-description: ITC binding of FKBP12-compound binary complex to CEP250
Give bare numbers, as −log10 of the molar value.

CC[C@H](Cc1ccccc1)[C@@H]1CCCCCC[C@@H](C)[C@H](O)[C@@H](C)[C@@H]2CC[C@@H](C)C(=O)C(O)(O2)C(=O)N2CCCC[C@H]2C(=O)O1	7.10

Item `CC[C@H](Cc1ccccc1)[C@@H]1/C=C/C/C=C/C[C@@H](C)[C@H](O)[C@@H](C)[C@@H]2CC[C@@H](C)C(=O)C(O)(O2)C(=O)N2CCCC[C@H]2C(=O)O1` has what recorded pKd?
7.15

# credit: patent US11059830B2
